Test system: Bacillus subtilis
Assay: cleaved RNA product abundance (RNA/gDNA barcode ratio) relative to median wild-type variant (ratio to wild type); higher = more accumulation of the downstream cleavage product
Conditions: experiment (reporter, strain, medium): exp 4a: truncated aprE reporter, strain BJT201 with 2% xylose (RNase J1 expressed); cleavage site: cggR-gapA (positions -7 to +36 mutated)
QUANTITY_MEASURED: cleaved RNA product abundance

{"columns": ["BIOPOLYMER_SEQUENCE", "MEASUREMENT_TARGET", "QUANTITY_MEASURED", "TEST_VALUE"],
 "data": [
  ["ACAGACGAAGGAGCCGCAAAGAAGTTATCAAGGTATGAATAATCCCTCAATATAAATATCTCTCACTTATTTAAA", "Bacillus subtilis", "cleaved RNA product abundance", 0.169],
  ["ACAGACGAAGGAGCCGCAAAGAAGTTATTAAGGGATGAATATTCCCTCAAAATAAATATCTCTCACTTATTTAAA", "Bacillus subtilis", "cleaved RNA product abundance", 0.224],
  ["ACAGACGAAGGAGCCGCAAAGAAGTTATTAAGGCATGAATAATCCCTCAATATAAATATCTCTCACTATTTAAAG", "Bacillus subtilis", "cleaved RNA product abundance", 0.146],
  ["ACAGACGAAGGAGCCGCCAAGAAGTTATTAAGGGATGAATAAACCCTCAATATAAATATCTCTCACTTATTTAAA", "Bacillus subtilis", "cleaved RNA product abundance", 0.471],
  ["ACAGACGAAGGAGCCGCAAAGAAGATATTAAGGGATGAATAATCCCTCTATATAAATATCTCTCACTTATTTAAA", "Bacillus subtilis", "cleaved RNA product abundance", 0.406],
  ["ACAGACGAAGGAGCCGCAAAGTAGTTATTAAGGGATGAATAATCCATCAATATAAATATCTCTCACTTATTTAAA", "Bacillus subtilis", "cleaved RNA product abundance", 0.161],
  ["ACAGACGAAGGAGCCGCAAATAAGTTATTAAGGGAAGAATAATCCCTCAATATAAATATCTCTCACTTATTTAAA", "Bacillus subtilis", "cleaved RNA product abundance", 0.366],
  ["ACAGACGAAGGAGCCGCAAAGAAGTTATAAAGGGATGAAAAATCCCTCAATATAAATATCTCTCACTTATTTAAA", "Bacillus subtilis", "cleaved RNA product abundance", 0.4],
  ["ACAGACGAAGGAGCCGCAAAGAAGTTTTTAAGGGATAAATAATCCCTCAATATAAATATCTCTCACTTATTTAAA", "Bacillus subtilis", "cleaved RNA product abundance", 0.214],
  ["ACAGACGAAGGAGCCGCAAAGAAGTTATTAAGGGATGAATAATCCCTCAATATAACCATCTCTCACTTATTTAAA", "Bacillus subtilis", "cleaved RNA product abundance", 0.296],
  ["ACAGACGAAGGAGCCGCAAAGAAGTTATAAATGGATGAATAATCCCTCAATATAAATATCTCTCACTTATTTAAA", "Bacillus subtilis", "cleaved RNA product abundance", 0.165],
  ["ACAGACGAAGGAGCCGCAAAGAAGTTATTAAGGGTTGAATAATCCCTGAATATAAATATCTCTCACTTATTTAAA", "Bacillus subtilis", "cleaved RNA product abundance", 0.299],
  ["ACAGACGAAGGAGCCGCAAAGAAGTTATTAAGGAATGAATAATCCCTCAATATAAATAACTCTCACTTATTTAAA", "Bacillus subtilis", "cleaved RNA product abundance", 0.21],
  ["ACAGACGAAGGAGCCGCAAGAAGTTATTAAGGGATTAATAATCCCTCAATATAAATATCTCTCACTTATTTAAAG", "Bacillus subtilis", "cleaved RNA product abundance", 0.71],
  ["ACAGACGAAGGAGCCGCAAAGAAGTTATTAAGGGATGAATAATCCCTCAATATAAACATCTCTCACTTATTTAAA", "Bacillus subtilis", "cleaved RNA product abundance", 0.702],
  ["ACAGACGAAGGAGCCGCAAAGAAGTGATTAAGGGATGAATAATCTCTCAATATAAATATCTCTCACTTATTTAAA", "Bacillus subtilis", "cleaved RNA product abundance", 0.306],
  ["ACAGACGAAGGAGCCGCAAAGAAGTGATTAAGGGATGAATAATCCCTTAATATAAATATCTCTCACTTATTTAAA", "Bacillus subtilis", "cleaved RNA product abundance", 0.74],
  ["ACAGACGAAGGAGCCGCAAAGAAGTTATTAAGGTATGAATAATCCCTCGATATAAATATCTCTCACTTATTTAAA", "Bacillus subtilis", "cleaved RNA product abundance", 0.0744],
  ["ACAGACGAAGGAGCCGCAACGAAGTTATTAAGGGATGAACAATCCCTCAATATAAATATCTCTCACTTATTTAAA", "Bacillus subtilis", "cleaved RNA product abundance", 0.631],
  ["ACAGACGAAGGAGCCGCAAAGAAGTTATTAACGGATGAATAATCCCTCAATACAAATATCTCTCACTTATTTAAA", "Bacillus subtilis", "cleaved RNA product abundance", 0.0789],
  ["ACAGACGAAGGAGCCGCAAAGAAGTTATAAAGTGATGAATAATCCCTCAATATAAATATCTCTCACTTATTTAAA", "Bacillus subtilis", "cleaved RNA product abundance", 0.117],
  ["ACAGACGAAGGAGCCGCAAAGAAGTTATTAAGGGATGAATAAACTCTCAATATAAATATCTCTCACTTATTTAAA", "Bacillus subtilis", "cleaved RNA product abundance", 0.14],
  ["ACAGACGAAGGAGCCGCAAAGAAGTTATTAAGGGATGAATGATCCATCAATATAAATATCTCTCACTTATTTAAA", "Bacillus subtilis", "cleaved RNA product abundance", 0.259],
  ["ACAGACGAAGGAGCCGCAAAGAAGTTATTACGGCATGAATAATCCCTCAATATAAATATCTCTCACTTATTTAAA", "Bacillus subtilis", "cleaved RNA product abundance", 0.204],
  ["ACAGACGAAGGAGCCGCTAAGAAGTTATTAAAGGATGAATAATCCCTCAATATAAATATCTCTCACTTATTTAAA", "Bacillus subtilis", "cleaved RNA product abundance", 0.157],
  ["ACAGACGAAGGAGCCGCAAAGAAATTATTAAGAGATGAATTATCCCTCAATATAAATATCTCTCACTTATTTAAA", "Bacillus subtilis", "cleaved RNA product abundance", 0.121],
  ["ACAGACGAAGGAGCCGCAAAGAGGTTATTAAGGGATAAATAATCCCTCAATATAAATATCTCTCACTTATTTAAA", "Bacillus subtilis", "cleaved RNA product abundance", 0.62],
  ["ACAGACGAAGGAGCCGCAAAGAAGTTATTAAGGGAAGAATAACCCCTCAATATAAATATCTCTCACTTATTTAAA", "Bacillus subtilis", "cleaved RNA product abundance", 0.369],
  ["ACAGACGAAGGAGCCGCAAAGAAGTTACTAAGTGATGAATAATCCCTCAATATAAATATCTCTCACTTATTTAAA", "Bacillus subtilis", "cleaved RNA product abundance", 0.102],
  ["ACAGACGAAGGAGCCGCAAAAAAGTTATTAAGGGATGAATAGTCCCTCAATATAAATATCTCTCACTTATTTAAA", "Bacillus subtilis", "cleaved RNA product abundance", 0.961]
]}
